- Tested On: α2β1 integrin (Homo sapiens, UniProt P05556+P17301)
- Construct: endogenous in cells; host or cells: gel-filtered human platelets of a single donor
- Sequence (P17301 30-1181, one chain of several): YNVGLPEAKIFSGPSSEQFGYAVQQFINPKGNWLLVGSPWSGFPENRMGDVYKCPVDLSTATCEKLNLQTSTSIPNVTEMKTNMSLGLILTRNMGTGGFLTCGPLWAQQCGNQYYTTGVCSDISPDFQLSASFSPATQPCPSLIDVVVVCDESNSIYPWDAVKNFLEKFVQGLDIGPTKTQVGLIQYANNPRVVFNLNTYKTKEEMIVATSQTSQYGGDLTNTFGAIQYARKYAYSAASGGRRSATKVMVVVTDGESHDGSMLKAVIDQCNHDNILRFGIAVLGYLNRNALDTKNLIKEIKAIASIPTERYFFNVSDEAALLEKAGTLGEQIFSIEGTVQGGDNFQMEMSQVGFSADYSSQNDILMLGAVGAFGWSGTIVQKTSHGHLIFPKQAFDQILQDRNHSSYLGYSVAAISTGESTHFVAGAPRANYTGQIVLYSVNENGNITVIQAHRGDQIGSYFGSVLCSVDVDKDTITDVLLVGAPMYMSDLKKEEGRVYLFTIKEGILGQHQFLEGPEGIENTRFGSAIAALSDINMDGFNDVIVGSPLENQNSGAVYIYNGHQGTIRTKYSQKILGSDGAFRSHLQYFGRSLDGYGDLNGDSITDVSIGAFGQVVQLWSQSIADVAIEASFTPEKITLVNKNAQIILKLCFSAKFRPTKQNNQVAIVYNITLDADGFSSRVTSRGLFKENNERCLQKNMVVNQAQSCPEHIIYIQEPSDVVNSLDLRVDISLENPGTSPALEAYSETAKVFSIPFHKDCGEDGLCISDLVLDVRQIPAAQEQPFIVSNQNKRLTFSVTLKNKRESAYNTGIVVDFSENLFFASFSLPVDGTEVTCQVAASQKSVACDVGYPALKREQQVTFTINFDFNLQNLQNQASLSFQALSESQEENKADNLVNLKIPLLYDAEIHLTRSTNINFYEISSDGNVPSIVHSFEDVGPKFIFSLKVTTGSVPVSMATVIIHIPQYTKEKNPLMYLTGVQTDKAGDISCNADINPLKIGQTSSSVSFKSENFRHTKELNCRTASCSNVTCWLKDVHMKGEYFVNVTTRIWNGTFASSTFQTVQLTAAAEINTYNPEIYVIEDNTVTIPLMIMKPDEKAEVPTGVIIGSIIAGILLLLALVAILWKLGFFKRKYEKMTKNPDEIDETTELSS
- Method: Platelet adhesion assay (human platelet adhesion to type I collagen)
- Format: cell-based
- Protocol Conditions: human platelet adhesion to type I (soluble, monomeric) collagen, static conditions; single donor; read-out: IC50
Listed next: entries and their corresponding IC50.
# number only, unit nM dropped from output

Check out these entries, answers already filled in.
Which IC50 is reported with α2β1 integrin (Homo sapiens, UniProt P05556+P17301) for this entry: `O=C(NCc1ccccc1)NC[C@H](NC(=O)[C@@H]1CCCN1S(=O)(=O)c1cc(F)cc(F)c1)C(=O)O` ?
35

Input `Nc1ccc(CNC(=O)NC[C@H](NC(=O)[C@@H]2CCCN2S(=O)(=O)c2ccc([N+](=O)[O-])cc2)C(=O)O)cc1`
460

// switching to the query compound
Which IC50 is reported with α2β1 integrin (Homo sapiens, UniProt P05556+P17301) for this entry: `O=C(NCc1ccccc1)NC[C@H](NC(=O)[C@@H]1CCCN1S(=O)(=O)c1ccc(NC(=O)Nc2ccccc2)cc1)C(=O)O` ?
151

###

Listed next: entries and their corresponding inhibition at 3 µM.
- Tested On: α1β1 (Homo sapiens, UniProt P05556+P56199)
- Construct: Marcinkiewicz (Temple University, Philadelphia, Pa.); host or cells: K562
- Sequence (P56199 29-1179): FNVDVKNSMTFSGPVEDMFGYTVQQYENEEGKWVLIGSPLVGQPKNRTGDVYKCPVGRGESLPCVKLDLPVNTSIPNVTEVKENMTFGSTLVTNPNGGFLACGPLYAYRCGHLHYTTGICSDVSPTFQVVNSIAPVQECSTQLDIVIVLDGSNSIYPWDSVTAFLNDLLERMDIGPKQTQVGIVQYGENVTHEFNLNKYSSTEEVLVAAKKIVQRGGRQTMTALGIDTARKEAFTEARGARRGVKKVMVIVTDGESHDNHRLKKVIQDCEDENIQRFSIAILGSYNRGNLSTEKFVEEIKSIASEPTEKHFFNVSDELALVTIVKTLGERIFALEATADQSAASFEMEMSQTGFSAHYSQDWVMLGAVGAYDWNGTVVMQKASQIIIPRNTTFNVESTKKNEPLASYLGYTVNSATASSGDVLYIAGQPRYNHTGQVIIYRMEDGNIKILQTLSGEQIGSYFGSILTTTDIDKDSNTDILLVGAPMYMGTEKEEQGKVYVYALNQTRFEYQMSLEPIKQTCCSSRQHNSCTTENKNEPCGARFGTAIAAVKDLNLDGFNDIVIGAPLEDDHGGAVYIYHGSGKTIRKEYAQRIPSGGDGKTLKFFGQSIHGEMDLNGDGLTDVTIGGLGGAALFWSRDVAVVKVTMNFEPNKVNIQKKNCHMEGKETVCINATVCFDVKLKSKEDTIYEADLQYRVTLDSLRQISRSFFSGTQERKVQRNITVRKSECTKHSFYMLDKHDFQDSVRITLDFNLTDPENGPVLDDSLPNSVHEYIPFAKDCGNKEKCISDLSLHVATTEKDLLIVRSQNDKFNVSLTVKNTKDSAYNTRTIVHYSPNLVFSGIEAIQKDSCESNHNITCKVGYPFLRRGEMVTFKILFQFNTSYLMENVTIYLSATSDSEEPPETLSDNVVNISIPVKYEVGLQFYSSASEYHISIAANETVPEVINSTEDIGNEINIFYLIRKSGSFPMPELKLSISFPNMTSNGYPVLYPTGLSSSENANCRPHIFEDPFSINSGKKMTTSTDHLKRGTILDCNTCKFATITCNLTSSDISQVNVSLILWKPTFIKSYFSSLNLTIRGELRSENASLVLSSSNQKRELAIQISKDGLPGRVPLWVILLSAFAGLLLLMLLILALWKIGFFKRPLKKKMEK
- Sequence (P05556 21-798): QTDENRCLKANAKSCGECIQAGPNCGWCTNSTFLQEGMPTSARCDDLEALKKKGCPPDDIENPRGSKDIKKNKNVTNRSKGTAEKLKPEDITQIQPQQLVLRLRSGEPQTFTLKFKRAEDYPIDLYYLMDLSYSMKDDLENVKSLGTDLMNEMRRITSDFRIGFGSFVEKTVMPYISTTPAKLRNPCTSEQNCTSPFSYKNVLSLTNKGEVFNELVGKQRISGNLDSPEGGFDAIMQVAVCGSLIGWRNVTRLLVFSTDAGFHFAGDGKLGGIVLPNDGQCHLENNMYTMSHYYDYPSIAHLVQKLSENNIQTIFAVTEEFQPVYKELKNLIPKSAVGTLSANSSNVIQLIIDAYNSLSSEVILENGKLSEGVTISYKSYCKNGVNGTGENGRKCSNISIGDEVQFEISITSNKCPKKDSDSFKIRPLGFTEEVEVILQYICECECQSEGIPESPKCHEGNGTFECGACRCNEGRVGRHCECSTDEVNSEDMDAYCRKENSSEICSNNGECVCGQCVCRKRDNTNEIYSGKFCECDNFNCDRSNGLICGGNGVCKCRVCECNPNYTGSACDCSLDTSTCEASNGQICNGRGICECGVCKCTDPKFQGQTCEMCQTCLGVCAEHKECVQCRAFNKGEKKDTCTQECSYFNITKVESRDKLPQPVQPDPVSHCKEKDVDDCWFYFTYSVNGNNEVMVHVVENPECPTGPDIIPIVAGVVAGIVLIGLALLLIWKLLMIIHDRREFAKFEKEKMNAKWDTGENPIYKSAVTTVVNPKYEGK
- Method: Cell adhesion assay to assess specificity: α1-transfected K562 cells on collagen IV
- Format: cell-based
- Protocol Conditions: read-out: % inhibition at 3 μM, α1β1

Check out these entries, answers already filled in.
Fill in: inhibition at 3 µM of `O=C(NCc1ccccc1)NC[C@H](NC(=O)[C@@H]1CCCN1S(=O)(=O)c1cc(Cl)cc(Cl)c1)C(=O)O` is ___
32%

Input `O=C(NCc1ccccc1)NC[C@H](NC(=O)[C@@H]1CCCN1S(=O)(=O)c1ccc2ccccc2c1)C(=O)O`
30%

Input `Cc1cc(C)cc(S(=O)(=O)N2CCC[C@H]2C(=O)N[C@@H](CNC(=O)NCc2ccccc2)C(=O)O)c1`
26%

// switching to the query compound
Fill in: inhibition at 3 µM of `Nc1ccc(CNC(=O)NC[C@H](NC(=O)[C@@H]2CCCN2S(=O)(=O)c2ccccc2)C(=O)O)cc1` is ___
22%

###

- Tested On: α2β1 integrin (Homo sapiens, UniProt P05556+P17301)
- Construct: endogenous in cells; host or cells: gel-filtered human platelets of a single donor
- Method: Platelet adhesion assay (human platelet adhesion to type I collagen)
- Type: cell-based
- Protocol Conditions: human platelet adhesion to type I (soluble, monomeric) collagen, static conditions; single donor; read-out: IC50
*1 amine or outer side, *2 acyl side, *3 side chain or, on linkers, in order; H or OH if unused. Where a SMILES comes first, the peptide text is derived from it. Side-chain parts run from the residue outwards. [ ]: non-standard residue; d: D form. The star is where a group is joined. Tos = Cc1ccc(S(=O)(=O)*)cc1; Dap = NC[C@H](N)C(=O)O; CO = O=C([*:1])[*:2]; NHBn = c1ccc(CN*)cc1
Assay Endpoint: IC50 (µM)
# number only, unit µM dropped from output

Check out these entries, answers already filled in.
Fill in: IC50 of Cc1ccc(S(=O)(=O)N2CCC[C@H]2C(=O)N[C@@H](CNC(=O)NCc2ccccc2)C(=O)O)cc1 [Compound 27] (Tos-Pro-[Dap]([CO-NHBn])-OH) is ___
0.036

Input `O=C(NCc1ccccc1)NC[C@H](NC(=O)[C@@H]1CCCN1S(=O)(=O)c1cccc2ccccc12)C(=O)O`
1.94

Input `O=C(NCc1ccccc1)NC[C@H](NC(=O)[C@@H]1CCCN1S(=O)(=O)c1cc(C(F)(F)F)cc(C(F)(F)F)c1)C(=O)O`
0.039

Input `O=C(NCc1ccccc1)NC[C@H](NC(=O)[C@@H]1CCCN1S(=O)(=O)c1ccc([N+](=O)[O-])cc1)C(=O)O`
0.105

Input `CC(C)(C)OC(=O)NC[C@H](NC(=O)[C@@H]1CCCN1S(=O)(=O)c1ccc([N+](=O)[O-])cc1)C(=O)O`
2.62

Input `COc1ccccc1CNC(=O)NC[C@H](NC(=O)[C@@H]1CCCN1S(=O)(=O)c1ccccc1)C(=O)O`
0.467

Input `O=C(NC[C@H](NC(=O)[C@@H]1CCCN1S(=O)(=O)c1ccc([N+](=O)[O-])cc1)C(=O)O)c1ccccc1`
2.31

Input `O=C(NCc1ccc(-c2ccccc2)cc1)NC[C@H](NC(=O)[C@@H]1CCCN1S(=O)(=O)c1ccc([N+](=O)[O-])cc1)C(=O)O`
4.1

More entries:
Fill in: IC50 of `CS(=O)(=O)c1ccc(S(=O)(=O)N2CCC[C@H]2C(=O)N[C@@H](CNC(=O)NCc2ccccc2)C(=O)O)cc1` is ___
0.07

Input `O=C(NCc1ccccc1)NC[C@H](NC(=O)[C@@H]1CCCN1S(=O)(=O)c1ccc(-c2ccccc2)cc1)C(=O)O`
0.287

Input `O=C(NCc1ccccc1Cl)NC[C@H](NC(=O)[C@@H]1CCCN1S(=O)(=O)c1ccccc1)C(=O)O`
0.107

Input `Nc1ccc(CNC(=O)NC[C@H](NC(=O)[C@@H]2CCCN2S(=O)(=O)c2ccccc2)C(=O)O)cc1`
0.023

Input `CCCNC(=O)NC[C@H](NC(=O)[C@@H]1CCCN1S(=O)(=O)c1ccccc1)C(=O)O`
0.367
